Listing of entries alongside the reported EC50.
# Test system: L. donovani HU3 strain in mouse peritoneal macrophages
# assay-overview: Assay for proliferation of Leishmania parasites in mouse peritoneal macrophages
# Format: cell-based, Leishmania donovani
# details: Leishmania donovani, Peritoneal macrophage, read-out: L. donavani Macrophage EC50

- structure-as-smiles: "O=C(Nc1ccc(Cl)c(-c2nc3ncc(-c4ccc(N5CCNCC5)cc4)cc3[nH]2)c1)N1CCCC1"
  rel: "="
  EC50 [µM]: 16.9
- structure-as-smiles: "Cc1cnc2nc(-c3cc(NC(=O)c4ccns4)ccc3Cl)[nH]c2c1"
  rel: "="
  EC50 [µM]: 5.6
- structure-as-smiles: "Cc1cnc2nc(-c3cc(NC(=O)CN)ccc3Cl)[nH]c2c1"
  rel: ">"
  EC50 [µM]: 50

====

# Test system: Trypanosoma cruzi amastigotes (Tulahuen strain) cultured in 3T3 fibroblast cells
# assay-overview: Assay for proliferation of kinetoplastid parasite Trypanosoma cruzi
# Format: cell-based
# details: 144 h, Tulahuen amastigotes in 3T3 fibroblast cells, 6 day incubation, read-out: T cruzi EC50
value-type: EC50

- compound: "Cc1cnc2nc(-c3cc(NC(=O)N4CCN(C)CC4)ccc3Cl)[nH]c2c1"
  target-or-system: "Trypanosoma cruzi amastigotes (Tulahuen strain) cultured in 3T3 fibroblast cells"
  endpoint-value: "> 20 µM"
- compound: "Cc1cnc2nc(-c3cc(NC(=O)Cc4cccc(Cl)c4)ccc3Cl)[nH]c2c1"
  target-or-system: "Trypanosoma cruzi amastigotes (Tulahuen strain) cultured in 3T3 fibroblast cells"
  endpoint-value: "> 11.5 µM"
- compound: "Cc1cnc2nc(-c3cc(NC(=O)N(C)C4CCOC4)ccc3Cl)[nH]c2c1 (centres unmarked)"
  target-or-system: "Trypanosoma cruzi amastigotes (Tulahuen strain) cultured in 3T3 fibroblast cells"
  endpoint-value: "> 20 µM"
- compound: "Cc1cnc2nc(-c3cc(NC(=O)C4CCCO4)ccc3Cl)[nH]c2c1 (centres unmarked)"
  target-or-system: "Trypanosoma cruzi amastigotes (Tulahuen strain) cultured in 3T3 fibroblast cells"
  endpoint-value: "> 20 µM"
- compound: "Cc1cnc2nc(-c3cc(NC(=O)Cc4ccncc4)ccc3Cl)[nH]c2c1"
  target-or-system: "Trypanosoma cruzi amastigotes (Tulahuen strain) cultured in 3T3 fibroblast cells"
  endpoint-value: "> 20 µM"

====

# Tested on: L. donovani HU3 strain in mouse peritoneal macrophages
# assay-overview: Assay for proliferation of Leishmania parasites in mouse peritoneal macrophages
# Assay type: cell-based, Leishmania donovani
# details: Leishmania donovani, Peritoneal macrophage, read-out: L. donavani Macrophage EC50
Quick reference for EC50 among some compounds
value-type: EC50

- compound: "COc1ccc(C(=O)Nc2ccc(Cl)c(-c3nc4ncc(C)cc4[nH]3)c2)cc1 [Compound 211]"
  value-type: "EC50"
  endpoint-value: "> 27.9 µM"
- compound: "CC(C)(C)c1nnc(C(=O)Nc2ccc(F)c(-c3nc4ncc(Br)cc4o3)c2)o1 [Compound 407]"
  value-type: "EC50"
  endpoint-value: "> 4.2 µM"
- compound: "Cc1ccnc2nc(-c3cc(NC(=O)c4ccco4)ccc3Cl)[nH]c12 [Compound 3]"
  value-type: "EC50"
  endpoint-value: "> 50 µM"
- compound: "Cc1cnc2nc(-c3cc(NC(=O)C4(C)COC4)ccc3Cl)[nH]c2c1 [Compound 163]"
  value-type: "EC50"
  endpoint-value: "> 50 µM"
- compound: "Cc1cnc2nc(-c3cc(NS(=O)(=O)c4c(C)noc4C)ccc3Cl)[nH]c2c1 [Compound 253]"
  value-type: "EC50"
  endpoint-value: "> 28.4 µM"
- compound: "Cc1cnc2nc(-c3cc(NC(=O)Cc4cc(C)no4)ccc3Cl)[nH]c2c1 [Compound 88]"
  value-type: "EC50"
  endpoint-value: "> 50 µM"
